Protocol: xn = mol fraction of the nth substance listed
Condition Context: 308.15 K; 101 kPa; x2 = 0.15
Would you mind telling me the reported viscosity of each entry?
Give just the number in mPa·s; leave the unit off.

Entry under test: CCCCCCCCCCO + CO . Its viscosity was 6.352

Entry under test: CCCCCCCCCCO + CCCCO . Its viscosity was 6.473

Entry under test: CCCCCCCCCCO + CCCO . Its viscosity was 6.633

Entry under test: CCCCCCCCCCO + CCO . Its viscosity was 6.644

----------
Protocol: xn = mol fraction of the nth substance listed
Condition Context: 298.15 K; 101 kPa; x2 = 0.9
Decide by viscosity: equal to or exceeding 3 mPa·s means Met, less means Not met.

Answer whether viscosity of CCCCCCCCCCO + CCCO is greater than or equal to 3 mPa·s. Not met

Answer whether viscosity of CCCCCCCCCCO + CO is greater than or equal to 3 mPa·s. Not met

Answer whether viscosity of CCCCCCCCCCO + CCCCO is greater than or equal to 3 mPa·s. Met

Answer whether viscosity of CCCCCC(=O)[O-].[NH3+]CCO + CCO is greater than or equal to 3 mPa·s. Met

Answer whether viscosity of CCCCCCCCCCO + CCO is greater than or equal to 3 mPa·s. Not met

----------
Protocol: xn = mol fraction of the nth substance listed
Condition Context: 298.15 K; 101 kPa; x2 = 0.25
Exam item: assign Yes to entries whose viscosity is below 9 mPa·s and No to entries at or above 9 mPa·s. Note that a value of exactly 9 mPa·s receives No.

For OCCOCCOCCO + C[N+](C)(C)CCO.[Cl-] , is the recorded viscosity below the cut-off of 9 mPa·s? No

For CCCCCCCCCCO + CCCO , is the recorded viscosity below the cut-off of 9 mPa·s? Yes

For CCCCCCCCCCO + CCO , is the recorded viscosity below the cut-off of 9 mPa·s? Yes

For CCCCCCCCCCO + CCCCO , is the recorded viscosity below the cut-off of 9 mPa·s? Yes

For CCCCCCCCCCO + CO , is the recorded viscosity below the cut-off of 9 mPa·s? Yes

----------
Condition Context: 308.15 K; 101 kPa
Would you mind telling me the reported viscosity of each entry?
Give just the number in mPa·s; leave the unit off.

Entry under test: COCCOCCO . Its viscosity was 2.593

Entry under test: Cc1ccc(Cl)cc1 . Its viscosity was 0.728

Entry under test: CCOC(=O)OCC . Its viscosity was 0.656

Entry under test: CCC#N . Its viscosity was 0.39

Entry under test: CCCCCC(=O)[O-].[NH3+]CCO . Its viscosity was 892.2

Entry under test: c1ccc(Oc2ccccc2)cc1 . Its viscosity was 2.92

----------
Protocol: xn = mol fraction of the nth substance listed
Condition Context: 318.15 K; 101 kPa; x2 = 0.55
± gives the uncertainty stated by the source.
Would you mind telling me the reported viscosity of each entry?
State the result as a value with its unit after it.

Entry under test: CCCCCCCCCCO + CCCO . Its viscosity was 3.275 ± 0.033 mPa·s

Entry under test: CCCCCCCCCCO + CCO . Its viscosity was 2.575 ± 0.023 mPa·s

Entry under test: CCCCCCCCCCO + CCCCO . Its viscosity was 3.07 ± 0.028 mPa·s

Entry under test: CCCCCCCCCCO + CO . Its viscosity was 2.443 ± 0.022 mPa·s

----------
Protocol: xn = mol fraction of the nth substance listed
Condition Context: 308.15 K; 101 kPa; x2 = 0.25
Experimental Endpoint: viscosity (mPa·s)
Give just the number in mPa·s; leave the unit off.

Entry under test: CCCCCCCCCCO + CCCO . Its viscosity was 6.093

Entry under test: CCCCCCCCCCO + CCCCO . Its viscosity was 5.866

Entry under test: CCCCCCCCCCO + CCO . Its viscosity was 5.809

Entry under test: CCCCCCCCCCO + CO . Its viscosity was 5.531

----------
Protocol: xn = mol fraction of the nth substance listed
Condition Context: 298.15 K; 101 kPa; x2 = 0.95
Exam item: assign True to entries whose viscosity is below 2 mPa·s and False to entries at or above 2 mPa·s. Note that a value of exactly 2 mPa·s receives False.

For CCCCCCCCCCO + CO , is the recorded viscosity below the cut-off of 2 mPa·s? True

For OCCOCCOCCO + COCCO , is the recorded viscosity below the cut-off of 2 mPa·s? True

For CCCCCCCCCCO + CCO , is the recorded viscosity below the cut-off of 2 mPa·s? True

For CCCCCCCCCCO + CCCO , is the recorded viscosity below the cut-off of 2 mPa·s? False

For CCCCCCCCCCO + CCCCO , is the recorded viscosity below the cut-off of 2 mPa·s? False

----------
Would you mind telling me the reported viscosity of each entry?
Protocol: xn = mol fraction of the nth substance listed
Condition Context: 298.15 K; 101 kPa; x2 = 0.7
Give just the number in mPa·s; leave the unit off.

Entry under test: CCCCCCCCCCO + CCCO . Its viscosity was 4.142

Entry under test: CCCCCCCCCCO + CCCCO . Its viscosity was 4.47

Entry under test: CCCCCCCCCCO + CCO . Its viscosity was 3.15

Entry under test: CCCCCCCCCCO + CO . Its viscosity was 2.485

----------
Protocol: xn = mol fraction of the nth substance listed
Condition Context: 318.15 K; 101 kPa; x2 = 0.6
Experimental Endpoint: viscosity (mPa·s)
Give just the number in mPa·s; leave the unit off.

Entry under test: Cc1ccccc1C + c1ccccc1 . Its viscosity was 0.55

Entry under test: CCCCCCCCCCO + CCO . Its viscosity was 2.391

Entry under test: CCCCCCCCCCO + CCCCO . Its viscosity was 2.872

Entry under test: CCCCCCCCCCO + CO . Its viscosity was 2.171

Entry under test: CCCCCCCCCCO + CCCO . Its viscosity was 3.15

----------
Would you mind telling me the reported log10(viscosity) of each entry?
Condition Context: 298.15 K; 100 kPa
// units: mPa·s (pre-log); metric: viscosity; scale: log10

Entry under test: OCCN(CCO)CCO . Its log10(viscosity) was 2.79

Entry under test: CN1CCN(C)C1=O . Its log10(viscosity) was 0.29

Entry under test: CCn1cc[n+](C)c1.F[B-](F)(F)F . Its log10(viscosity) was 1.62

Entry under test: Cc1ccccc1C . Its log10(viscosity) was -0.13

Entry under test: Cc1ccc(Cl)cc1 . Its log10(viscosity) was -0.08

----------
Protocol: xn = mol fraction of the nth substance listed
Condition Context: 318.15 K; 101 kPa; x2 = 0.35
Experimental Endpoint: viscosity (mPa·s)
Give just the number in mPa·s; leave the unit off.

Entry under test: CCCCCCCCCCO + CCCO . Its viscosity was 3.921

Entry under test: CCCCCCCCCCO + CCO . Its viscosity was 3.236

Entry under test: CCCCCCCCCCO + CCCCO . Its viscosity was 3.883

Entry under test: CCCCCCCCCCO + CO . Its viscosity was 3.567

----------
Would you mind telling me the reported viscosity of each entry?
Protocol: xn = mol fraction of the nth substance listed
Condition Context: 318.15 K; 101 kPa; x2 = 0.7
Give just the number in mPa·s; leave the unit off.

Entry under test: CCCCCCCCCCO + CO . Its viscosity was 1.649

Entry under test: CCCCCCCCCCO + CCCCO . Its viscosity was 2.485

Entry under test: CCCCCCCCCCO + CCCO . Its viscosity was 2.96

Entry under test: CCCCCCCCCCO + CCO . Its viscosity was 1.989

----------
Protocol: xn = mol fraction of the nth substance listed
Condition Context: 318.15 K; 101 kPa; x2 = 0.15
Experimental Endpoint: viscosity (mPa·s)
Give just the number in mPa·s; leave the unit off.

Entry under test: CCCCCCCCCCO + CCCO . Its viscosity was 4.716

Entry under test: CCCCCCCCCCO + CCO . Its viscosity was 4.102

Entry under test: CCCCCCCCCCO + CCCCO . Its viscosity was 4.71

Entry under test: CCCCCCCCCCO + CO . Its viscosity was 4.649

----------
Protocol: xn = mol fraction of the nth substance listed
Condition Context: 318.15 K; 101 kPa; x2 = 0.2
Experimental Endpoint: viscosity (mPa·s)
Give just the number in mPa·s; leave the unit off.

Entry under test: CCCCCCCCCCO + CO . Its viscosity was 4.39

Entry under test: CCCCCCCCCCO + CCCCO . Its viscosity was 4.501

Entry under test: Cc1ccccc1C + c1ccccc1 . Its viscosity was 0.573
